- Tested on: P12-Ichikawa
- measurement-protocol: cell viability relative to DMSO control; higher = less cytotoxic
- run-conditions: HPLM + 10% dialyzed FBS; 48 h; 15.4 µM
reported-endpoint: cell viability

INSERT INTO assay_data (compound, value_reported) VALUES
  ('C[C@@H]1CCN(C(=O)CC#N)C[C@@H]1N(C)c1ncnc2[nH]ccc12', '84%'),
  ('CCOC(=O)N1c2ccc(C(F)(F)F)cc2[C@@H](N(Cc2cc(C(F)(F)F)cc(C(F)(F)F)c2)C(=O)OC)C[C@H]1CC', '110%'),
  ('Cc1nn(C)c(COc2ccc(N3CCN([S+](=O)([O-])N(C)C)CC3)cc2)c1-c1cccc2c(CCCOc3cccc4ccccc34)c(C(=O)O)n(CCN3CCOCC3)c12', '29.2%'),
  ('CCC(C)N1\N=C/N(C1=O)C2=CC=C(C=C2)N3CCN(CC3)C4=CC=C(OC[C@H]5CO[C@@](C[N]6C=NC=N6)(O5)C7=CC=C(Cl)C=C7Cl)C=C4 (stereo partly specified)', '98.8%'),
  ('C=C1C(=O)[C@@]23C(CC[C@@H]1[C@H]2O)[C@@]12CO[C@]3(O)[C@@H](O)[C@@H]1C(C)(C)CC[C@@H]2O (stereo partly specified)', '44.7%'),
  ('CC1=C(/C=C/C(C)=C/C=C/C(C)=C\C(=O)O)C(C)(C)CCC1', '95.5%'),
  ('C[C@@H]1CN(Cc2ccc(F)cc2)[C@@H](C)CN1C(=O)c1cc2c(C(=O)C(=O)N(C)C)cn(C)c2cc1Cl', '125%'),
  ('NC(=O)Nc1sc(-c2ccc(F)cc2)cc1C(N)=O', '67.3%'),
  ('CC(C)=CCC/C(C)=C/CC/C(C)=C/CC/C(C)=C/CC/C(C)=C/CC/C(C)=C/CC/C(C)=C/CC/C(C)=C/CC/C(C)=C/CO', '93.4%'),
  ('CC(NC(C)(C)C)C(=O)c1cccc(Cl)c1 (stereo unspecified)', '115%'),
  ('N#C/C(=C\c1ccc(O)c(O)c1)C(=O)NCc1ccccc1', '68.5%'),
  ('CCN1C[C@H](C)[N]2C(=C(O)C3=C2\C(=N/N(CC4=CC=C(F)C(=C4)Cl)C3=O)C(=O)NC)C1=O', '107%'),
  ('Cc1ccccc1C(OCCN(C)C)c1ccccc1 (stereo unspecified)', '123%'),
  ('NC[C@@H]1O[C@H](O[C@H]2[C@@H](O)[C@H](O[C@@H]3[C@@H](O)[C@H](N)C[C@H](N)[C@H]3O[C@H]3O[C@H](CN)[C@@H](O)[C@H](O)[C@H]3N)O[C@@H]2CO)[C@H](N)[C@@H](O)[C@@H]1O.O=S(=O)(O)O.O=S(=O)(O)O.O=S(=O)(O)O', '99.5%'),
  ('O=C(NCCCCN1CCOCC1)c1cc2ccccc2o1', '112%'),
  ('COc1cc2ncn(-c3cc(OCc4ccccc4[S+](C)(=O)[O-])c(C#N)s3)c2cc1OC', '92%'),
  ('N#Cc1ccc(Oc2ccc3c(c2)COB3O)cc1', '80.6%'),
  ('O=C(Nc1nnc(-c2ccco2)o1)c1cc(-c2ccccc2)nc2ccccc12', '3.09%'),
  ('OC1=CC2=C(C=C1)C(=O)\C(=C(O2)\C3=CC(=C(O)C=C3)O)O', '82.4%'),
  ('COc1ccc(C(CN(C)C)C2(O)CCCCC2)cc1 (stereo unspecified)', '98.2%'),
  ('COC(=O)Nc1nc2cc(C(=O)c3ccc(F)cc3)ccc2[nH]1', '60.6%');

---

# cell viability values compiled below
- Test system: SEM cells
- measurement-protocol: cell viability relative to DMSO control; higher = less cytotoxic
- run-conditions: RPMI 5 mM glucose + 10% dialyzed FBS; 48 h; 0.569 µM
reported-endpoint: cell viability (%)

INSERT INTO results (chemical_structure, reported_endpoint, value_reported) VALUES
  ('O=C([O-])C[C@H](O)C[C@H](O)/C=C/c1c(C2CC2)nc2ccccc2c1-c1ccc(F)cc1', 'cell viability', 79.6),
  ('COc1ccc(OC)c(-c2nnc3ccc(-c4ccc(OC)c(O[C@@H]5CCOC5)c4)nn23)c1', 'cell viability', 123),
  ('CC(C)=CCC/C(C)=C/CC/C(C)=C/CSc1ccccc1C(=O)O', 'cell viability', 74.8),
  ('CC(=O)OC[C@H]1O[C@@H]([S-])[C@H](OC(C)=O)[C@@H](OC(C)=O)[C@@H]1OC(C)=O.CCP(CC)CC.[Au+]', 'cell viability', 84.5);

---

- Tested on: SEM cells
- measurement-protocol: cell viability relative to DMSO control; higher = less cytotoxic
- run-conditions: HPLM + 10% dialyzed FBS; 48 h; 5.12 µM
Rule for this label: 1 means cell viability is less than 90%; 0 means cell viability is at least 90%.

INSERT INTO assay_data (molecule, assigned_category) VALUES
  ('Cc1cn([C@H]2C=C[C@@H](CO)O2)c(=O)[nH]c1=O', 0),
  ('CC(=O)c1cnc2ccc(-c3cc(Cl)c(O)c(Cl)c3)nc2c1N[C@H]1CC[C@H](CN(C)C)CC1', 1),
  ('OC1=CC=C(C=C1)\C2=C\OC3=C(C(=CC(=C3)O)O)C2=O', 0),
  ('NC[C@@H]1O[C@H](O[C@H]2[C@@H](O)[C@H](O[C@@H]3[C@@H](O)[C@H](N)C[C@H](N)[C@H]3O[C@H]3O[C@H](CN)[C@@H](O)[C@H](O)[C@H]3N)O[C@@H]2CO)[C@H](N)[C@@H](O)[C@@H]1O.O=S(=O)(O)O.O=S(=O)(O)O.O=S(=O)(O)O', 0),
  ('CC(C)(O)CCc1ccc(OCc2cc(-c3cccc(OC(F)F)c3)c3ncccc3c2)cc1', 0),
  ('N[S+](=O)([O-])c1cc2c(cc1Cl)NC(C(Cl)Cl)N[S+]2(=O)[O-] (configuration not stated)', 0),
  ('Cc1c(-c2cccc3c(CCCOc4cccc5ccccc45)c(C(=O)O)n(Cc4cccnc4)c23)c(COc2ccc(N3CCN([S+](=O)([O-])N(C)C)CC3)cc2)nn1C', 1),
  ('C/C(=N\NC(=S)N1CCC1)c1ccccn1', 1),
  ('CCOC(=O)[C@@]1(CCCCCCOc2ccc(Cl)cc2)CO1', 0),
  ('CCOC(=O)C(C#N)C\1C2=CC(=CC=C2O\C(=C1C(=O)OCC)N)Br (configuration not stated)', 0),
  ('O=C1CCC[C@@H]2[C@H]3CCCN4CCC[C@@H](CN12)[C@@H]34', 1),
  ('O=C(CCc1ccc(O)cc1)c1c(O)cc(O)cc1O', 1),
  ('C[C@@H]1CN(Cc2ccc(F)cc2)[C@@H](C)CN1C(=O)c1cc2c(C(=O)C(=O)N(C)C)cn(C)c2cc1Cl', 1),
  ('CC(C)=CCC/C(C)=C/CC/C(C)=C/CC/C(C)=C/CC/C(C)=C/CC/C(C)=C/CC/C(C)=C/CC/C(C)=C/CC/C(C)=C/CO', 0),
  ('COc1ccc(OC)c(-c2nnc3ccc(-c4ccc(OC)c(O[C@@H]5CCOC5)c4)nn23)c1', 0),
  ('CO[C@@]12[C@H](COC(N)=O)C/3=C(N1C[C@@H]4N[C@H]24)/C(=O)/C(=C(N)\C3=O)C', 0),
  ('CN1C(=O)C(=C\C2=C1N=C(NC3=CC=CC(=C3)C(O)=O)N=C2)/C4=C(Cl)C=CC=C4Cl', 0),
  ('CC(=O)N[C@@H]1[C@@H](NC(N)=N)\C=C(/O[C@H]1[C@H](O)[C@H](O)CO)C(O)=O', 0),
  ('O=C(Nc1c[nH]nc1-c1nc2cc(CN3CCOCC3)ccc2[nH]1)NC1CC1', 1),
  ('COc1cc(CCc2cc(NC(=O)c3ccc(N4C[C@@H](C)N[C@@H](C)C4)cc3)n[nH]2)cc(OC)c1', 1),
  ('OC1=CC2=C(C=C1)C(=O)\C(=C(O2)\C3=CC(=C(O)C=C3)O)O', 0);

---

- System: SEM cells
- measurement-protocol: cell viability relative to DMSO control; higher = less cytotoxic
- run-conditions: HPLM + 10% dialyzed FBS; 48 h; 15.4 µM
reported-endpoint: cell viability (%)

INSERT INTO assay_data (chemical_structure, reported_endpoint, unit_abbrev, value_reported) VALUES
  ('CCC[S+](=O)([O-])Nc1ccc(F)c(C(=O)c2c[nH]c3ncc(Cl)cc23)c1F', 'cell viability', '%', 17.9),
  ('Cc1nn(C)c(COc2ccc(N3CCN([S+](=O)([O-])N(C)C)CC3)cc2)c1-c1cccc2c(CCCOc3cccc4ccccc34)c(C(=O)O)n(CCN3CCOCC3)c12', 'cell viability', '%', 112),
  ('O=C([O-])C[C@H](O)C[C@H](O)/C=C/c1c(C2CC2)nc2ccccc2c1-c1ccc(F)cc1', 'cell viability', '%', 70),
  ('COc1ccc(OC)c(-c2nnc3ccc(-c4ccc(OC)c(O[C@@H]5CCOC5)c4)nn23)c1', 'cell viability', '%', 119);
